Attribution: ChEMBL document CHEMBL2150953

# Lookup of reported log10(IC50) keyed by entry
- System: HeLa
- experimental-protocol: Cytotoxicity against human HeLa cells after 48 hrs by MTS assay
- Type: functional, cell-based
quantity-measured: log10(IC50) (log10 of the value in µM)

# compound, log10(IC50)
data = [
    ("COc1cc(/C=C/C(=O)OC[C@H]2O[C@H](O[C@]3(CO)O[C@H](COC(=O)/C=C/c4ccc(O)cc4)[C@@H](O)[C@@H]3OC(=O)/C=C/c3ccc(O)cc3)[C@H](O)[C@@H](O)[C@@H]2O)ccc1O [LAPATHOSIDE C]", 1.10),
    ("CC[C@@]1(O)C(=O)OCc2c1cc1n(c2=O)Cc2cc3ccccc3nc2-1", -0.40),
    ("COc1cc(/C=C/C(=O)OC[C@H]2O[C@@](CO)(O[C@H]3O[C@H](CO)[C@@H](O)[C@H](O)[C@H]3O)[C@@H](OC(=O)/C=C/c3ccc(O)c(OC)c3)[C@@H]2OC(=O)/C=C/c2ccc(O)c(OC)c2)ccc1O", 1.35),
    ("COc1cc(/C=C/C(=O)OC[C@H]2O[C@H](O[C@]3(CO)O[C@H](COC(=O)/C=C/c4ccc(OC(C)=O)cc4)[C@@H](O)[C@@H]3OC(=O)/C=C/c3ccc(OC(C)=O)cc3)[C@H](O)[C@@H](OC(=O)/C=C/c3ccc(OC(C)=O)c(OC)c3)[C@@H]2O)ccc1OC(C)=O", 0.50),
    ("COc1cc(/C=C/C(=O)OC[C@H]2O[C@]3(COC(C)(C)O[C@H]4[C@H](O[C@@H]5COC(C)(C)O[C@H]5[C@@H]4OC(=O)/C=C/c4ccc(OC(C)=O)c(OC)c4)O3)[C@@H](OC(=O)/C=C/c3ccc(OC(C)=O)c(OC)c3)[C@@H]2OC(=O)/C=C/c2ccc(OC(C)=O)c(OC)c2)ccc1OC(C)=O", 0.51),
    ("CC(=O)Oc1ccc(/C=C/C(=O)OC[C@H]2O[C@@](CO)(O[C@H]3O[C@H](COC(=O)/C=C/c4ccc(OC(C)=O)cc4)[C@@H](O)[C@H](OC(=O)/C=C/c4ccc(OC(C)=O)cc4)[C@H]3O)[C@@H](OC(=O)/C=C/c3ccc(OC(C)=O)cc3)[C@@H]2O)cc1", 0.27),
    ("COc1cc(/C=C/C(=O)OC[C@H]2O[C@@](CO)(O[C@H]3O[C@H](CO)[C@@H](O)[C@H](O)[C@H]3O)[C@@H](OC(=O)/C=C/c3ccc(OC(C)=O)c(OC)c3)[C@@H]2OC(=O)/C=C/c2ccc(OC(C)=O)c(OC)c2)ccc1OC(C)=O", 0.23),
]
